Test system: 324938-238-R-J1-PDC complex spheroids viability;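 note: viability read after seven days of drug exposure; 100% = DMSO vehicle control wells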
Assay: Anticancer human tumor 324938-238-R-J1-PDC patient-derived bladder carcinoma cell line growth inhibition [CLK]
Settings: second compound 3.16 µM; first compound 0.1 µM; stronger effect = lower value
Labelling field: enter 1 if recorded viability, T/C is less than 0.2%. Enter 0 if it equals or exceeds that cut-off.

Is viability, T/C of CCN1CCN(Cc2ccc(Nc3ncc(F)c(-c4cc(F)c5nc(C)n(C(C)C)c5c4)n3)nc2)CC1 + CN1CCN(c2cc(C(=O)Nc3cc4cc(-c5cnn(C)c5)ccc4cn3)ccn2)CC1 strictly below 0.2%? 1

Is viability, T/C of CC(=O)O[C@H]1C(=O)[C@@]2(C)[C@H]([C@H](OC(=O)c3ccccc3)[C@]3(O)C[C@H](OC(=O)[C@H](O)[C@@H](NC(=O)c4ccccc4)c4ccccc4)C(C)=C1C3(C)C)[C@]1(OC(C)=O)CO[C@@H]1C[C@@H]2O + CN1CCN(c2cc(C(=O)Nc3cc4cc(-c5cnn(C)c5)ccc4cn3)ccn2)CC1 strictly below 0.2%? 0

Is viability, T/C of CCCS(=O)(=O)Nc1ccc(F)c(C(=O)c2c[nH]c3ncc(-c4ccc(Cl)cc4)cc23)c1F + CN1CCN(c2cc(C(=O)Nc3cc4cc(-c5cnn(C)c5)ccc4cn3)ccn2)CC1 strictly below 0.2%? 0

Is viability, T/C of COc1ccc([C@@H](O)c2cc(-c3ncnc4cc(N5CCOCC5)ccc34)c(F)cc2Cl)nn1 + CNC(=O)c1ccc(Nc2nc(OC3CCCC3)c3c(-c4ccc5nc(C)oc5c4)c[nH]c3n2)c(OC)c1 strictly below 0.2%? 0

Is viability, T/C of Nc1ccccc1NC(=O)c1ccc(CNC(=O)OCc2cccnc2)cc1 + CN1CCN(c2cc(C(=O)Nc3cc4cc(-c5cnn(C)c5)ccc4cn3)ccn2)CC1 strictly below 0.2%? 1

Is viability, T/C of Cn1ncnc1[C@H]1c2n[nH]c(=O)c3cc(F)cc(c23)N[C@@H]1c1ccc(F)cc1 + CNC(=O)c1ccc(Nc2nc(OC3CCCC3)c3c(-c4ccc5nc(C)oc5c4)c[nH]c3n2)c(OC)c1 strictly below 0.2%? 0

Is viability, T/C of CCCS(=O)(=O)Nc1ccc(F)c(C(=O)c2c[nH]c3ncc(-c4ccc(Cl)cc4)cc23)c1F + CNC(=O)c1ccc(Nc2nc(OC3CCCC3)c3c(-c4ccc5nc(C)oc5c4)c[nH]c3n2)c(OC)c1 strictly below 0.2%? 0

Is viability, T/C of COC1C=CCC(C)C(C)S(=O)(=O)NC(=O)c2ccc3c(c2)N(CC2CCC21)CC1(CCCc2cc(Cl)ccc21)CO3 (stereo unspecified) + CNC(=O)c1ccc(Nc2nc(OC3CCCC3)c3c(-c4ccc5nc(C)oc5c4)c[nH]c3n2)c(OC)c1 strictly below 0.2%? 0

Is viability, T/C of COc1cccc2c1C(=O)c1c(O)c3c(c(O)c1C2=O)CC(O)(C(=O)CO)CC3OC1CC(N)C(O)C(C)O1 (stereo unspecified) + CNC(=O)c1ccc(Nc2nc(OC3CCCC3)c3c(-c4ccc5nc(C)oc5c4)c[nH]c3n2)c(OC)c1 strictly below 0.2%? 0

Is viability, T/C of CC(CO)NC(=O)c1cc(-c2ccc(Cl)cc2)nn(-c2cnn(C)c2)c1=O (stereo unspecified) + CN1CCN(c2cc(C(=O)Nc3cc4cc(-c5cnn(C)c5)ccc4cn3)ccn2)CC1 strictly below 0.2%? 0

Is viability, T/C of O=C(c1cc(Cc2n[nH]c(=O)c3ccccc23)ccc1F)N1CCN(C(=O)C2CC2)CC1 + CN1CCN(c2cc(C(=O)Nc3cc4cc(-c5cnn(C)c5)ccc4cn3)ccn2)CC1 strictly below 0.2%? 0
